- System: human Adenosine A1 Receptor (AdoRA1), ADORA1 (gene 134) (UniProt P30542)
- Sequence (P30542 whole entry, looked up): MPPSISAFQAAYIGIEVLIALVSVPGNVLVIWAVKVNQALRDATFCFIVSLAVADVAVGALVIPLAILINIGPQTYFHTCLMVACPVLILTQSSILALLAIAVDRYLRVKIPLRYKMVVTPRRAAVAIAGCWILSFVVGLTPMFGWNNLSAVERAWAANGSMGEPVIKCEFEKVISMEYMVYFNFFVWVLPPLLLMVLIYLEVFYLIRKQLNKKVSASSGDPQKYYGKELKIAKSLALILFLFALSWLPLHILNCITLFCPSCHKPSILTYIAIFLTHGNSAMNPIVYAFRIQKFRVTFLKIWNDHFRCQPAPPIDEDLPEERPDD
- Assay Method Text: NVS_GPCR_hAdoRA1: NovaScreen (NVS) G Protein-Coupled Receptor Assay for human Adenosine A1 Receptor (AdoRA1) (AID 2283254)
Results filed as inconclusive are left out. Calls of active or inactive are those of the source. How the source made its calls: active means hit-call score of the fitted dose curve at least 0.9, where 1 is the maximum; inconclusive means response in the unintended direction; inactive means score below 0.9.
Measurement Kind: AC50

CCNc1nc(Cl)nc(NC(C)(C)C#N)n1 | 4.08 µM (active)

Task item: Fill in the blank: the reported AC50 of `Cc1cc(C2CC2)nc(Nc2ccccc2)n1` is ____.
Reply: 9.57 µM (active)

====

- Assay Method Text: CEETOX_H295R_CORTISOL: CeeTox H295R High-throughput Steroidogenesis Assay for Cortisol (AID 2283438);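 further: cortisol secreted into medium quantified by LC-MS/MS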
- Experimental Parameters: actives raise or lower the signal
Calls of active or inactive are those of the source. Rule for the calls: active = hit-call score of the fitted dose curve at least 0.9, where 1 is the maximum; inactive = score below 0.9.
Assign a class; possible classes are True for active, False for inactive

Some solved cases for reference:
COP(=O)(NC(C)=O)SC (configuration not stated) | False
CCCCN(CC)c1c([N+](=O)[O-])cc(C(F)(F)F)cc1[N+](=O)[O-] | False
CCCSP(=O)(OCC)SCCC | False
CSc1nnc(C(C)(C)C)c(=O)n1N | False
C#CC(C)(C)NC(=O)c1cc(Cl)cc(Cl)c1 | False
CCOP(=S)(OCC)Oc1ccc([N+](=O)[O-])cc1 | True

From here, focus on the item given below.
Task item: Would you mind telling me which call this test gave `COc1ccc(C(=CC(=O)N2CCOCC2)c2ccc(Cl)cc2)cc1OC` ?
Reply: True

====

- System: Cellular tumor antigen p53 (Homo sapiens)
- Assay Method Text: TOX21_p53_BLA_p3_ratio: Tox21 HCT-116 p53 Agonism Beta-lactamase Assay, Ratio, Phase 3 (AID 2283596)
Records with an inconclusive call do not appear. Calls of active or inactive are those of the source. How the source made its calls: active means hit-call score of the fitted dose curve at least 0.9, where 1 is the maximum; inconclusive means response in the unintended direction; inactive means score below 0.9.
Measurement Kind: outcome

CSC1=N[C@@](C)(c2ccccc2)C(=O)N1Nc1ccccc1 | inactive
CC(C1CC1)C(O)(Cn1cncn1)c1ccc(Cl)cc1 (stereo not drawn) | inactive
COc1ccc(C(=CC(=O)N2CCOCC2)c2ccc(Cl)cc2)cc1OC | inactive

====

- Assay Method Text: ATG_GATA_CIS: Attagene CIS-FACTORIAL HepG2 Assay for human GATA Binding Protein (AID 2282944)
- Experimental Parameters: HepG2 GATA cis-element reporter, Attagene multiplex mRNA; actives raise or lower the signal
The source made the active and inactive calls. How the source made its calls: active means hit-call score of the fitted dose curve at least 0.9, where 1 is the maximum; inactive means score below 0.9.
// allowed return values: active, inactive

Example entries begin here.
COP(=O)(NC(C)=O)SC (stereo not given) | inactive
CCOP(=S)(OCC)Oc1ccc([N+](=O)[O-])cc1 | inactive
CNC(=O)ON=C(SC)C(=O)N(C)C | inactive
C#CC(C)(C)NC(=O)c1cc(Cl)cc(Cl)c1 | inactive

Task item: Look up the recorded call for `C=C(C)[C@H]1Cc2c(ccc3c2O[C@@H]2COc4cc(OC)c(OC)cc4[C@@H]2C3=O)O1` in this test.
Reply: active

Task item: Write down the call the test reported for this molecule. Item: `CC(C)N(C(=O)SCC(Cl)=C(Cl)Cl)C(C)C`
Reply: inactive

Task item: Hey, what did the test say about FC(F)C(F)(F)OCC(Cn1cncn1)c1ccc(Cl)cc1Cl (stereo not given) ?
Reply: inactive

Task item: Hello, I am checking results. What call was entered for `O=[N+]([O-])c1cc(C(F)(F)F)c(Cl)c([N+](=O)[O-])c1Nc1ncc(C(F)(F)F)cc1Cl` ?
Reply: inactive

Task item: Record request — test call for `Nc1c(Cl)cc([N+](=O)[O-])cc1Cl`
Reply: inactive
